Test system: T98G (Glioblastoma)
PROTOCOL TEXT: Bliss excess, mean over the matrix (fraction); higher = more synergy
PROPERTY LABEL: Bliss excess

>>> measured_value("Cc1cc2ncnn2cc1Nc1ncc2c(n1)n(C1CCOCC1)c(=O)n2C [AZD7648] + C[C@@H]1COCCN1C2=NC(=NC(=C2)C3(CC3)[S@](=N)(=O)C)C4=C5C=CNC5=NC=C4 [AZD6738] (first compound max 10 µM, 7x7, partner max 10 µM)")
0.0339

Summary for this compound, NC1(C(=O)N[C@@H](CCO)c2ccc(Cl)cc2)CCN(c2ncnc3[nH]ccc23)CC1 [Capivasertib] + COc1nnc2ccc(N3CCC(c4ccc(OCCN5CCN(C)C(=O)[C@H]5C)cc4)CC3)nn12 [AZD5153] (first compound max 10 µM, 7x7, partner max 1 µM) : Bliss excess is 0.0908

###

System: HCC-78 (Lung Adenocarcinoma)
PROTOCOL TEXT: Bliss excess, mean over the matrix (fraction); higher = more synergy
Think of -0.002 as a floor: if Bliss excess stands on it or above, it is 1.0; beneath it, 0.0.

See these solved cases before continuing.
>>> category_label("Cc1cc2ncnn2cc1Nc1ncc2c(n1)n(C1CCOCC1)c(=O)n2C [AZD7648] + C[C@@H]1COCCN1C2=NC(=NC(=C2)C3(CC3)[S@](=N)(=O)C)C4=C5C=CNC5=NC=C4 [AZD6738] (first compound max 10 µM, 7x7, partner max 10 µM)")
1.0
>>> category_label("CC(=O)c1c(C)c2cnc(Nc3ccc(N4CCNCC4)cn3)nc2n(C2CCCC2)c1=O [Palbociclib] + Cc1c2c(nn1C)CSCc1cc(n(C)n1)CSc1cc(c3ccccc3c1)OCCCc1c(C(=O)O)n(C)c3c-2c(Cl)ccc13 [AZD5991] (first compound max 10 µM, 7x7, partner max 1 µM)")
1.0
>>> category_label("CC(=O)c1c(C)c2cnc(Nc3ccc(N4CCNCC4)cn3)nc2n(C2CCCC2)c1=O [Palbociclib] + CC1(C)CCC(CN2CCN(c3ccc(C(=O)NS(=O)(=O)c4ccc(NCC5CCOCC5)c([N+](=O)[O-])c4)c(Oc4cnc5[nH]ccc5c4)c3)CC2)=C(c2ccc(Cl)cc2)C1 [Venetoclax] (first compound max 10 µM, 7x7, partner max 1 µM)")
0.0
>>> category_label("NC1(C(=O)N[C@@H](CCO)c2ccc(Cl)cc2)CCN(c2ncnc3[nH]ccc23)CC1 [Capivasertib] + CCN(CCO)CCCOc1ccc2c(Nc3cc(CC(=O)Nc4cccc(F)c4)[nH]n3)ncnc2c1 [AZD2811] (first compound max 10 µM, 7x7, partner max 1 µM)")
0.0
>>> category_label("C=CCn1c(=O)c2cnc(Nc3ccc(N4CCN(C)CC4)cc3)nc2n1-c1cccc(C(C)(C)O)n1 [AZD1775] + O=C(c1cc(Cc2n[nH]c(=O)c3ccccc23)ccc1F)N1CCN(C(=O)C2CC2)CC1 [Olaparib] (first compound max 1 µM, partner max 10 µM)")
0.0
>>> category_label("C=CCn1c(=O)c2cnc(Nc3ccc(N4CCN(C)CC4)cc3)nc2n1-c1cccc(C(C)(C)O)n1 [AZD1775] + CCc1c2c(nc3ccc(O)cc13)-c1cc3c(c(=O)n1C2)COC(=O)[C@]3(O)CC [SN-38] (first compound max 1 µM, partner max 0.3 µM)")
1.0

Would you kindly look at the next entry?
Query: // inclusive: Bliss excess at least -0.002? input: CN(C)CCCOc1ccc(-c2ccc3ncc4c(c3c2)n(C2CCOCC2)c(=O)n4C)cn1 [AZD0156] + C=CCn1c(=O)c2cnc(Nc3ccc(N4CCN(C)CC4)cc3)nc2n1-c1cccc(C(C)(C)O)n1 [AZD1775] (first compound max 1 µM, partner max 1 µM)
Reply: 1.0

###

Test system: NCI-H82 (Small Cell Lung Carcinoma)
PROTOCOL TEXT: Bliss excess, mean over the matrix (fraction); higher = more synergy
Parameter Bliss excess: see the listing below.

Summary for this compound, Cn1cnc2c(F)c(Nc3ccc(Br)cc3Cl)c(C(=O)NOCCO)cc21 [Selumetinib] + C=CCn1c(=O)c2cnc(Nc3ccc(N4CCN(C)CC4)cc3)nc2n1-c1cccc(C(C)(C)O)n1 [AZD1775] (first compound max 10 µM, partner max 1 µM) : Bliss excess is -0.106

Summary for this compound, CN(CCO)CC[C@H](CSc1ccccc1)Nc1ccc(S(=O)(=O)NC(=O)c2ccc(N3CCC([C@@H](O)c4ccccc4-c4ccc(Cl)cc4)CC3)cc2)cc1S(=O)(=O)C(F)(F)F [AZD4320] + C=CCn1c(=O)c2cnc(Nc3ccc(N4CCN(C)CC4)cc3)nc2n1-c1cccc(C(C)(C)O)n1 [AZD1775] (first compound max 1 µM, partner max 1 µM) : Bliss excess is 0.0113

###

Test system: LB831-BLC (Bladder Carcinoma)
PROTOCOL TEXT: combination Emax (second highest fraction inhibited in the dose matrix, 72 h); higher = more inhibition; extreme values may be limits of the assay
PROPERTY LABEL: combination Emax
Reply briefly: the number, and no unit.

>>> measured_value("NC1(C(=O)N[C@@H](CCO)c2ccc(Cl)cc2)CCN(c2ncnc3[nH]ccc23)CC1 [Capivasertib] + CC(C)n1c(=O)n(C)c2cnc3cc(F)c(-c4ccc(OCCCN5CCCCC5)nc4)cc3c21 [AZD1390] (first compound max 10 µM, 7x7, partner max 0.3 µM)")
0.493
>>> measured_value("CN(CCO)CC[C@H](CSc1ccccc1)Nc1ccc(S(=O)(=O)NC(=O)c2ccc(N3CCC([C@@H](O)c4ccccc4-c4ccc(Cl)cc4)CC3)cc2)cc1S(=O)(=O)C(F)(F)F [AZD4320] + C[C@@H](Nc1cc(F)cc(F)c1)c1cc(C(=O)N(C)C)cc2c(=O)cc(N3CCOCC3)oc12 [AZD8186] (first compound max 1 µM, 7x7, partner max 3 µM)")
0.532

Query molecule follows.
Summary line: Cc1cc2ncnn2cc1Nc1ncc2c(n1)n(C1CCOCC1)c(=O)n2C [AZD7648] + COc1cc([C@@H]2c3cc4c(cc3[C@@H](O[C@@H]3O[C@@H]5CO[C@@H](C)O[C@H]5[C@H](O)[C@H]3O)[C@H]3COC(=O)[C@H]23)OCO4)cc(OC)c1O [Etoposide] (first compound max 10 µM, 7x7, partner max 10 µM) , LB831-BLC (Bladder Carcinoma), reported combination Emax = 0.836

###

Test system: HT-1376 (Bladder Carcinoma)
PROTOCOL TEXT: combination Emax (second highest fraction inhibited in the dose matrix, 72 h); higher = more inhibition; extreme values may be limits of the assay
Parameter combination Emax: see the listing below.
Reply briefly: the number, and no unit.

Known results for compounds:
>>> measured_value("CC(=O)c1c(C)c2cnc(Nc3ccc(N4CCNCC4)cn3)nc2n(C2CCCC2)c1=O [Palbociclib] + CC1(C)CCC(CN2CCN(c3ccc(C(=O)NS(=O)(=O)c4ccc(NCC5CCOCC5)c([N+](=O)[O-])c4)c(Oc4cnc5[nH]ccc5c4)c3)CC2)=C(c2ccc(Cl)cc2)C1 [Venetoclax] (first compound max 10 µM, 7x7, partner max 1 µM)")
0.0784
>>> measured_value("CN(C)CCCOc1ccc(-c2ccc3ncc4c(c3c2)n(C2CCOCC2)c(=O)n4C)cn1 [AZD0156] + O=C(c1cc(Cc2n[nH]c(=O)c3ccccc23)ccc1F)N1CCN(C(=O)C2CC2)CC1 [Olaparib] (first compound max 3 µM, partner max 3 µM)")
0.115

Summary for this compound, NC1(C(=O)N[C@@H](CCO)c2ccc(Cl)cc2)CCN(c2ncnc3[nH]ccc23)CC1 [Capivasertib] + C[C@@H]1COCCN1C2=NC(=NC(=C2)C3(CC3)[S@](=N)(=O)C)C4=C5C=CNC5=NC=C4 [AZD6738] (first compound max 10 µM, 7x7, partner max 10 µM) : combination Emax is 0.377

Summary for this compound, COc1cc2c(cc1OCCCCCOc1cc3c(cc1OC)C(=O)N1C=C(C)C[C@H]1C=N3)N=C[C@@H]1CC(C)=CN1C2=O [SG3199] + O=C(c1cc(Cc2n[nH]c(=O)c3ccccc23)ccc1F)N1CCN(C(=O)C2CC2)CC1 [Olaparib] (first compound max 0.001 µM, 7x7, partner max 10 µM) : combination Emax is 0.121

Summary for this compound, CN(CCO)CC[C@H](CSc1ccccc1)Nc1ccc(S(=O)(=O)NC(=O)c2ccc(N3CCC([C@@H](O)c4ccccc4-c4ccc(Cl)cc4)CC3)cc2)cc1S(=O)(=O)C(F)(F)F [AZD4320] + C1CN(CCC1(C(=O)N[C@@H](CCO)C2=CC=C(C=C2)Cl)N)C3=NC=NC4=C3C=CN4 [Capivasertib] (first compound max 1 µM, 7x7, partner max 3 µM) : combination Emax is 0.74

Summary for this compound, C[C@@H](Nc1cc(F)cc(F)c1)c1cc(C(=O)N(C)C)cc2c(=O)cc(N3CCOCC3)oc12 [AZD8186] + C1CN(CCC1(C(=O)N[C@@H](CCO)C2=CC=C(C=C2)Cl)N)C3=NC=NC4=C3C=CN4 [AZD5363] (first compound max 10 µM, 7x7, partner max 10 µM) : combination Emax is 0.116

Summary for this compound, C[C@@H]1COCCN1c1cc(C2([S@](C)(=N)=O)CC2)nc(-c2ccnc3[nH]ccc23)n1 [AZD6738] + C1CC(C1)(C(=O)[O-])C(=O)[O-].N.N.[Pt+2] [Carboplatin] (first compound max 10 µM, 7x7, partner max 10 µM) : combination Emax is 0.454

Summary for this compound, CN(C)CCCOc1ccc(-c2ccc3ncc4c(c3c2)n(C2CCOCC2)c(=O)n4C)cn1 [AZD0156] + C=CCn1c(=O)c2cnc(Nc3ccc(N4CCN(C)CC4)cc3)nc2n1-c1cccc(C(C)(C)O)n1 [AZD1775] (first compound max 1 µM, partner max 1 µM) : combination Emax is 0.294

Summary for this compound, N#Cc1cnc(Nc2cc(NC[C@H]3CNCCO3)c(C(F)(F)F)cn2)cn1 [SRA737] + CCc1c2c(nc3ccc(O)cc13)-c1cc3c(c(=O)n1C2)COC(=O)[C@]3(O)CC [SN-38] (first compound max 10 µM, 7x7, partner max 0.3 µM) : combination Emax is 0.566

Summary for this compound, CC1(C)CCC(CN2CCN(c3ccc(C(=O)NS(=O)(=O)c4ccc(NCC5CCOCC5)c([N+](=O)[O-])c4)c(Oc4cnc5[nH]ccc5c4)c3)CC2)=C(c2ccc(Cl)cc2)C1 [Venetoclax] + COc1cc(Nc2ncc3c(n2)-c2ccc(Cl)cc2C(c2c(F)cccc2OC)=NC3)ccc1C(=O)O [Alisertib] (first compound max 1 µM, 7x7, partner max 10 µM) : combination Emax is 0.246

Summary for this compound, Cn1cnc2c(F)c(Nc3ccc(Br)cc3Cl)c(C(=O)NOCCO)cc21 [Selumetinib] + CC(C)n1c(=O)n(C)c2cnc3cc(F)c(-c4ccc(OCCCN5CCCCC5)nc4)cc3c21 [AZD1390] (first compound max 10 µM, 7x7, partner max 0.3 µM) : combination Emax is 0.157

Summary for this compound, C[C@@H](c1ccc2nccn2c1)n1nnc2ncc(-c3cnn(C)c3)nc21 [Savolitinib] + Cc1c2c(nn1C)CSCc1cc(n(C)n1)CSc1cc(c3ccccc3c1)OCCCc1c(C(=O)O)n(C)c3c-2c(Cl)ccc13 [AZD5991] (first compound max 1 µM, 7x7, partner max 1 µM) : combination Emax is 0.179

Summary for this compound, O=C(c1cc(Cc2n[nH]c(=O)c3ccccc23)ccc1F)N1CCN(C(=O)C2CC2)CC1 [Olaparib] + Cc1c2c(nn1C)CSCc1cc(n(C)n1)CSc1cc(c3ccccc3c1)OCCCc1c(C(=O)O)n(C)c3c-2c(Cl)ccc13 [AZD5991] (first compound max 10 µM, 7x7, partner max 1 µM) : combination Emax is 0.0928
